B1: tRNA (parent)
chain: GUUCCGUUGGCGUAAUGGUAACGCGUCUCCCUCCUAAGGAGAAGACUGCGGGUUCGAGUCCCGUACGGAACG

- Variants of: B1
- assay-procedure: yeast fitness relative to wild type (ratio to wild type); higher = fitter; tRNA-Arg(CCU), competitive growth, 37 C, YPD
Fewer inactive variants are shown than the library holds.
Consider the following variants; for each one, report its yeast fitness.
Answers are plain numbers.

• GUUCCGUUGGCGUAAUGGUAACGCGUCUCCCUCCUAAGGAGAAGACUGCGGGUUCGCGUCCCGCACGGAACG = 0.564
• GUUCCGUUGGCGUAUUGGUAACGCGUCUCCCUCCUAAGGCGAAGACUGCGGGUUCGAGUCCCGUACGGAACG = 0.723
• GUUCCGUUGGCGUAAUGGUAACGCGUCACCCUCCUAAGGAGAAGACUGCGGGUUCGUGUCCCGUACGGAACG = 0.598
• GUUCCGUCGGCGUAAUGGUAACGCGUCUCCCUCCUAAGGAGAAGUCUGCGGGUUCGAGCCCCGUACGGAACG = 0.57
• GUUCCGGUGGCGUAAUGGUAACGCGUCUCCCUCCUAAGGAGAAGACUGCGGGUUCGAGUCCCGUACGGCACG = 0.851

Provide yeast fitness for all items below, preserving their order.
1. GUACAGUUGGCGUAAUAGUAAUGCGUCUCCCUCCUAAGGAGAAGACUGCGGGUUCGAGUCCCGUAUGGAACG
2. GCUCCGUUGGCGUAAUGGUAACGUGUCUCCCUCCUAAGGAGAAGACUGCGGGUUCGAGUCCCGUACGGACCG
3. GUUCCGUUGGCGUAAUGGUAAGGCGUCUGCCUCCUAAGGAGAAGACUGCGGGUUCGAGUCCCGUACGGAACG

**Result**
[0.531, 0.708, 0.546]

Provide yeast fitness for all items below, preserving their order.
1. GUUCCAUCGGCGUAAUGGUAACGCGUCUCCCUCCUAAGGAGAAGACUGCGGGUUCGAGUCCCGUACGGAACG
2. GUUCCGUUGGCGUAAUGGUAACGCGUCUCCCUCCUAAGGAGAAGUCUGCGGGUUCGAGUCCCGUACAGAACG

**Result**
[0.792, 0.767]

src = the RNAGym collection of RNA variant scans (doi:10.1126/science.aae0568)
